target-or-system: T1, GST-RAB11a (1-173, Q70L mutant) (UniProt P62491 1-173, Q70L)
T1 construct: source: E. coli BL21, purified (glutathione sepharose, Superdex 75 gel filtration)
T1 sequence (looked up): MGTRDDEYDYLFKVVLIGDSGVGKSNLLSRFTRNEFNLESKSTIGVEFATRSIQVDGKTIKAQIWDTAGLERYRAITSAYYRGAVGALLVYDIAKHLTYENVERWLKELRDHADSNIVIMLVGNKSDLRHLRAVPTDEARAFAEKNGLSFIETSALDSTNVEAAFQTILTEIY
test-method-notes: fluorescence polarisation; FITC-peptide 25 nM with threefold dilutions of GST-RAB protein; 20 mM Tris pH 8.0, 150 mM NaCl, 5 mM MgCl2, 2 mM DTT, 10 µM GTP, 2% glycerol; room temperature, 30 min; apparent Kd from a sigmoidal (4-parameter) fit, 95% confidence interval
test-settings: both partners purified
pKd: −log10 of the molar value. Bridge positions count the residues as written; N and C are the ends. Square brackets hold non-standard residues; d marks the D form. Ends that are not written are not given here. * marks the point of attachment. FITC = O=C1OC2(c3ccc(O)cc3Oc3cc(O)ccc32)c2ccc(NC(=S)*)cc21; S5 = C=CCCC[C@](C)(N)C(=O)O; PEG = not defined here; βAla = NCCC(=O)O
Each entry gets NOT MET if its pKd stays under 7, and MET if its pKd is 7 or above.

These recorded examples may help you get a feel for the data.
[
  {
    "binder": "{FITC-PEG-βAla}-RINFRLQ[S5]YID[S5]IIVAIMETNPSILEVK (staple 8-12; reading uncertain) [FITC-RFP10 (FIP3-derived stapled peptide, 'YID' staple)]",
    "category": "NOT MET"
  },
  {
    "binder": "{FITC-PEG-βAla}-RQVRELEDYIDRLLV[S5]VME[S5]TPNILRIPR (staple 16-20; reading uncertain) [FITC-RFP8 (FIP1-derived stapled peptide, 'IME' staple)]",
    "category": "MET"
  },
  {
    "binder": "{FITC-PEG}-EQEEINFRLRQYMDKIILAILDHNPSILEIKH (reading uncertain, also called fRFP4; FIP4 peptide; source: synthetic peptide (Fmoc solid phase, HPLC purified)) [FITC-RFP4 (unmodified FIP4 RAB-binding domain peptide)]",
    "category": "NOT MET"
  },
  {
    "binder": "{FITC-PEG}-KKEFQVRELEDYIDNLLVRVMEETPNILRIPA (reading uncertain, also called fRFP1; FIP1 peptide; source: synthetic peptide (Fmoc solid phase, HPLC purified)) [FITC-RFP1 (unmodified FIP1 RAB-binding domain peptide)]",
    "category": "NOT MET"
  },
  {
    "binder": "{FITC-PEG-βAla}-RINFRLQDYIDRIIV[S5]IME[S5]NPSILEVK (staple 16-20; reading uncertain) [FITC-RFP12 (FIP3-derived stapled peptide, 'IME' staple)]",
    "category": "MET"
  }
]

Does pKd meet or surpass 7 for {FITC-PEG-βAla}-RQVRELE[S5]YID[S5]LLVRVMEETPNILRIPR (staple 8-12; reading uncertain) [FITC-RFP6 (FIP1-derived stapled peptide, 'YID' staple)] ?
NOT MET

Does pKd meet or surpass 7 for {FITC-PEG-βAla}-RINFRLQDYID[S5]IIV[S5]IMETNPSILEVK (staple 12-16; reading uncertain) [FITC-RFP11 (FIP3-derived stapled peptide, 'IIV' staple)] ?
MET

Does pKd meet or surpass 7 for {FITC-PEG-βAla}-RQVRELED[S5]IDR[S5]LVRVMEETPNILRIPR (staple 9-13; reading uncertain) [FITC-RFP9 (FIP1-derived stapled peptide, 'IDR' staple)] ?
NOT MET
